method_summary: activity coefficient (dimensionless); of the first substance listed, at infinite dilution; xn = mol fraction of the nth substance listed
measurement_setup: 298 K; 101 kPa; Liquid; Chromatography; x1 = 0
measurement_type: activity coefficient
I only need the number, thanks.

Sample ClC(Cl)=C(Cl)Cl [tetrachloroethene] + C[S+](C)[O-] — what was its activity coefficient?
10.5

Given C1=CCCCC1 [cyclohexene] + C[S+](C)[O-] , state its recorded activity coefficient.
14.9

I'd like to know its activity coefficient. The compound in question is ClC(Cl)(Cl)Br [bromotrichloromethane] + C[S+](C)[O-]
2.1

Return reported activity coefficient; argument: C1=CC=CCC=C1 [1,3,5-cycloheptatriene] + C[S+](C)[O-]
5.7

Item under review: C#CCCCCCC [1-octyne] + C[S+](C)[O-] . Reported activity coefficient?
10.2

Can you share its activity coefficient? I mean this compound: C=CC1CC=CCC1 (stereo not given) [4-ethenylcyclohexene] + C[S+](C)[O-]
20.7

Entry C1CCCCCCC1 [cyclooctane] + C[S+](C)[O-] has what activity coefficient?
63.3

If you can, please state the reported activity coefficient value of CC1CCCCC1 [methylcyclohexane] + C[S+](C)[O-] .
49.2

Find the recorded activity coefficient belonging to C#CCCCCC [1-heptyne] + C[S+](C)[O-] and report it.
6.9

# activity coefficient lookup, item C1=CCCC1 [cyclopentene] + C[S+](C)[O-]
7

Fill in the blank: the reported activity coefficient of Cc1ccc(C(C)C)cc1 [1-(1-methylethyl)-4-methylbenzene] + C[S+](C)[O-] is ____.
15.1

Dear colleague, I am looking for the recorded activity coefficient of the following compound: CC1CCCC1 [methylcyclopentane] + C[S+](C)[O-]
29.5

Report activity coefficient for C=CCCC=C [1,5-hexadiene] + CCCCCCCCCCCCCCCC please.
0.8

Entry under review: C#CCCCC [1-hexyne] + C[S+](C)[O-] . Reported activity coefficient?
4.1

// returns reported activity coefficient for input C=CCCC=C [1,5-hexadiene] + C[S+](C)[O-]
11.6
